- assayProtocol: in vivo
- conditionParameters: rat
resultType: bioavailability (%)
Numbers only, in %.

{"columns": ["smilesInput", "valueUnits", "bioavailability"],
 "data": [
  ["CCn1nc(Cc2ccc(F)cc2)cc1C1CCN(C[C@H]2CN([C@@H](C(=O)O)C(C)C)C[C@@H]2c2cccc(F)c2)CC1", "%", 7.8],
  ["CCn1nc(Cc2ccc(-c3ccccc3)cc2)cc1C1CCN(C[C@H]2CN([C@@H](C(=O)O)C(C)(C)C)C[C@@H]2c2cccc(F)c2)CC1", "%", 33],
  ["CC[C@H](C)[C@H](C(=O)O)N1C[C@H](CN2CCC(c3cc(Cc4ccc(C(C)(C)C)cc4)nn3CC)CC2)[C@@H](c2cccc(F)c2)C1", "%", 9.2],
  ["CC[C@@H](C)[C@H](C(=O)O)N1C[C@H](CN2CCC(c3cc(Cc4ccc(OC5CCC5)cc4)nn3CC)CC2)[C@@H](c2cccc(F)c2)C1", "%", 26],
  ["CC[C@H](C)[C@H](C(=O)O)N1C[C@H](CN2CCC(c3cc(Cc4ccc(OC(F)(F)F)cc4)nn3CC)CC2)[C@@H](c2cccc(F)c2)C1", "%", 41]
]}

Go through the list and state bioavailability for each entry.
1. CCOc1ccc(Cc2cc(C3CCN(C[C@H]4CN([C@@H](C(=O)O)[C@@H](C)CC)C[C@@H]4c4cccc(F)c4)CC3)n(CC)n2)cc1
2. CC[C@@H](C)[C@H](C(=O)O)N1C[C@H](CN2CCC(c3cc(Cc4ccc(OC(C)(C)C)cc4)nn3CC)CC2)[C@@H](c2cccc(F)c2)C1
3. CCn1nc(Cc2ccc(-c3ccccc3)cc2)cc1C1CCN(C[C@H]2CN([C@@H](C(=O)O)C3CCCCC3)C[C@@H]2c2cccc(F)c2)CC1
4. CC[C@H](C)[C@H](C(=O)O)N1C[C@H](CN2CCC(c3cc(Cc4ccc(OC5CCC5)cc4)nn3CC)CC2)[C@@H](c2cccc(F)c2)C1

5.9
23
18
68

// for each compound in input: emit bioavailability
1. CCn1nc(Cc2cccc(F)c2)cc1C1CCN(C[C@H]2CN([C@@H](C(=O)O)C(C)C)C[C@@H]2c2cccc(F)c2)CC1
2. CCn1nc(Cc2ccc(-c3ccccc3)cc2)cc1C1CCN(C[C@H]2CN([C@@H](C(=O)O)C(C)C)C[C@@H]2c2cccc(F)c2)CC1
3. CC[C@H](C)[C@H](C(=O)O)N1C[C@H](CN2CCC(c3cc(Cc4ccccc4)nn3CC)CC2)[C@@H](c2cccc(F)c2)C1

1. 40
2. 26
3. 13

Fill in the blank: the reported bioavailability of CCn1nc(Cc2ccc(S(C)(=O)=O)cc2)cc1C1CCN(C[C@H]2CN([C@@H](C(=O)O)C(C)C)C[C@@H]2c2cccc(F)c2)CC1 is ____. 5.4
